Sourced from paper PMC10962891

TARGET_UNDER_TEST: human TGR5 (Homo sapiens)
Sequence (Q8TDU6 1-330): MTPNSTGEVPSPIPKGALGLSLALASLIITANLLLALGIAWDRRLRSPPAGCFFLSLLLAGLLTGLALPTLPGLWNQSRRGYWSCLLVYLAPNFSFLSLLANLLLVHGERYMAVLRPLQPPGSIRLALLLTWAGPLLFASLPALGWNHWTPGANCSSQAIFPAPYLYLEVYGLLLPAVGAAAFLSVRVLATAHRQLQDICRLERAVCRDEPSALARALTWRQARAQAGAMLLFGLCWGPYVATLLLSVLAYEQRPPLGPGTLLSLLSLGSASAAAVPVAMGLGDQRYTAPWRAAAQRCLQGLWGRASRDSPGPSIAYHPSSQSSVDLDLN
ASSAY_NAME: cell-based
METRIC_NAME: EC50 (µM)

1 = CC(CCC(=O)NCC(=O)O)C1CCC2C3C(O)CC4CC(O)CCC4(C)C3CCC12C (stereo not drawn)
2 = C[C@H](CCC(=O)NCC(=O)O)[C@H]1CC[C@H]2[C@@H]3[C@H](O)C[C@@H]4C[C@H](O)CC[C@]4(C)[C@H]3C[C@H](O)[C@]12C
*Q* Of 1 and 2 , which carries the smaller reported EC50 figure? Answer = label.
*A* 1
